Tested on: A549 NSCLC
MEASUREMENT_DESCRIPTION: NCI tumour cell line growth inhibition, 48 h
READOUT_NAME: TGI

INPUT: Fill in: TGI of Cc1ccc(N2C(=O)/C(=C/c3ccc(N(CCC#N)CCC#N)cc3C)N=C2c2cc([N+](=O)[O-])ccc2Cl)cc1 is ___
OUTPUT: > 100 µM

INPUT: Please answer likewise for Nc1ccccc1OCc1cc(=O)c(OCc2ccccc2)co1
OUTPUT: > 100 µM

INPUT: Please answer likewise for C1=NCCNCCN=Cc2ccccc2OCc2cccc(n2)COc2ccccc21
OUTPUT: > 100 µM

###

Measured TGI accompanies every entry in the list below.
Test system: HOP-62 NSCLC
MEASUREMENT_DESCRIPTION: NCI tumour cell line growth inhibition, 48 h

>>> observed_result("O/N=C1\\CCc2cc3c(cc21)CCC3")
"> 100 µM"

INPUT: Fill in: TGI of Cc1ccc(CCCCCOc2ccc(C3=NCCO3)cc2)s1 is ___
OUTPUT: > 100 µM

INPUT: Please answer likewise for c1ccc(SC(CCCCOC2CCCCO2)Sc2ccccc2)cc1 (stereo unspecified)
OUTPUT: > 100 µM

INPUT: Please answer likewise for Cc1cc(C)c(NS(=O)c2cccc(Cl)c2)c(C)c1 (stereo unspecified)
OUTPUT: > 100 µM

INPUT: Please answer likewise for COc1ccc(/C=C/C(=O)c2cc3c(N)c(C(=O)Nc4ccccc4)sc3nc2C)cc1
OUTPUT: > 22.5 µM

INPUT: Please answer likewise for Clc1ccc(SCCCCCCCCCCSc2ccc(Cl)cc2)cc1
OUTPUT: > 100 µM

###

System: UO-31 renal
MEASUREMENT_DESCRIPTION: NCI tumour cell line growth inhibition, 48 h
So basically: TGI at 30 µM or higher? That is true (1). Lower than 30 µM? That is false (0).

The following compounds have reported results that may help.
>>> label_value("Cc1cc(C)c(NS(=O)c2cccc(Cl)c2)c(C)c1 (stereo not given)")
"true (1)"
>>> label_value("CO/N=C(/C(=O)OC)c1ccccc1COc1cccc(C(F)(F)F)c1")
"true (1)"
>>> label_value("C=CCN=C1NC(=O)C(CC(=O)Nc2ccc(C)cc2)S1 (stereo not given)")
"true (1)"
>>> label_value("COc1ccc2nc3ccc(OC)cc3c(SCC3CO3)c2c1 (stereo not given)")
"false (0)"
>>> label_value("C1=NCCNCCN=Cc2ccccc2OCc2cccc(n2)COc2ccccc21")
"true (1)"

INPUT: Record C=C1CC[C@@H]2[C@](C)(COC(C)=O)[C@H](OC(C)=O)CC[C@@]2(C)[C@@H]1C/C=C1/C(=O)OC[C@H]1OC(C)=O ; criterion: TGI no lower than 30 µM. Met?
OUTPUT: false (0)

INPUT: Please answer likewise for CCOC1C=CCCO1 (stereo not given)
OUTPUT: true (1)

INPUT: Please answer likewise for Cc1ccc(CCCCCOc2ccc(C3=NCCO3)cc2)s1
OUTPUT: true (1)

INPUT: Please answer likewise for CC1(C)C2C/C(=C\c3ccccc3)C(=O)C1C2 (stereo not given)
OUTPUT: true (1)

INPUT: Please answer likewise for O=C1CCCC1NC(=O)C(F)(F)F (stereo not given)
OUTPUT: true (1)

INPUT: Please answer likewise for CSC(=S)OC1C(CO[Si](C)(C)C(C)(C)C)OC2OC(C)(C)OC21 (stereo not given)
OUTPUT: true (1)
